system: MS2 coat protein; assay: apparent KD of MS2 coat protein, switch ON state; designed switch direction (-1 OFF switch, 1 ON switch): -1; higher = weaker reporter binding; settings: FMN input: 0 or 200 uM; Eterna round: R93 (includes R88 designs)
assay-endpoint: apparent KD of MS2 coat protein (nM)
Lab book: enter the figure in nM, no units written.

apparent KD of MS2 coat protein lookup needed for GAAAAGUCAGGAUAUGCAGAAAAAAAAACGAAAAAAAAACUGCAGAAGGGACAUGAGGAUCACCCAUGUUAAAA [Mat - Exclusion 4 - Mayanna - D127] , thanks.
41.5

Field request: apparent KD of MS2 coat protein | item: AGCUAGUCAGGAUAUACAAACAUGUCAAAAGACGUGAAGGGACAUGAGGAUCACCCAUGUAGAAGGGACUAGCA [Web Mod 74% 2]
52.2

Entry ACUUAUGAAGGAUAUACUAGCAACAUGCACUCAACACACACACAUGAGGAUCACCCAUGUAGAAGGUCAAACAU [JR_Exc002_Sub1206] has what apparent KD of MS2 coat protein?
23.2

Reported apparent KD of MS2 coat protein for AUAAAUCGAGGAUAUACAUGAGGAUCACCCAUGUAAAUAAAUAAAUAAUCCUCAGGAAGUAGAAGGCGAAAUAA [JR_Exc003_Sub019] : what is it?
15.1

Which apparent KD of MS2 coat protein value is on record for AGAAAGUCAGGAUAUCAGAAUAAGUCGAAAACGACUAGUAAUGAGAAGGGACAUGAGGAUCACCCAUGUAAGAA [Ex4 sub 3] ?
49

Please report the recorded apparent KD of MS2 coat protein for GGAAAACAUGAGGAUCACCCAUGUAAGGAUAUGCAAAAAAGGAUAUAGAAGGAAAAAAGCAGAAGGUACAAAGG [salish99-ex1-23] .
27.1
